Molecular target: VEGFR (KDR) (Homo sapiens)
Construct: cloning the cytoplasmic domain of the KDR kinase as an in frame fusion at the carboxyl terminus of the GST gene
Sequence (P35968 786-1356 limits assumed): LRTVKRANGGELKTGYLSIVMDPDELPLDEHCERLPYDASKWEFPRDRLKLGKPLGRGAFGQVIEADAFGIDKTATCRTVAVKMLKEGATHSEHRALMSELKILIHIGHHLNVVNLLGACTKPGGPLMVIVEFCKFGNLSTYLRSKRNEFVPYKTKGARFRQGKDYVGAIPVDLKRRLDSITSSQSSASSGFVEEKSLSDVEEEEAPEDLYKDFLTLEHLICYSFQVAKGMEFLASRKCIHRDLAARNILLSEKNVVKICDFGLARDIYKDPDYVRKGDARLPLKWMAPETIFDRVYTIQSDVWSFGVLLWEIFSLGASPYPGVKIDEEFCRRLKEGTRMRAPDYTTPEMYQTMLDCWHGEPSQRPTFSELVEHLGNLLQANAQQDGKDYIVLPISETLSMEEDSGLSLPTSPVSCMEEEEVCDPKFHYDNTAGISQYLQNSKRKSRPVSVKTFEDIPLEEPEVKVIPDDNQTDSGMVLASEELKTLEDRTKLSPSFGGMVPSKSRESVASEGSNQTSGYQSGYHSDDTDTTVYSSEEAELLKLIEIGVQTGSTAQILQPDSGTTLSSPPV
Experiment: VEGF receptor kinase assay (pEY substrate, 33P incorporation)
Conditions: kinase inhibition
readout_label: pIC50
# reply with the number alone; pIC50 is -log10 of concentration in mol/L

Below, 3 compounds whose answers are already recorded.
Nc1ncnc2c1ncn2-c1ccc(NC(=O)Nc2cc(C(F)(F)F)ccc2OC2CCNC2)cc1 (stereo not shown) :: 7.06
Nc1ncnc2c1ncn2-c1ccc(NC(=O)Nc2cccc(OC(F)(F)F)c2)cc1 :: 8.30
Nc1ncnc2c1ncn2-c1ccc(NC(=O)Nc2cc(C(F)(F)F)ccc2-n2cncn2)cc1 :: 8.11

Consider the record given below.
Prompt: Report pIC50 for `Nc1ncnc2c1ncn2-c1ccc(NC(=O)Nc2cc(C(F)(F)F)ccn2)cc1` tested on VEGFR (KDR) (Homo sapiens).
Completion: 8.34

====

For Tie-2 kinase (Homo sapiens), measured IC50 is reported for the entries below.
Answer format: numeric, nM implied, no suffix.

CC(C)(C)c1cc(NC(=O)Nc2ccc(-n3cnc4c(N)ncnc43)cc2)no1 [Compound 15] :: 19.5

Prompt: Look at this compound and give its reported IC50. Nc1ncnc2c1ncn2-c1ccc(NC(=O)Nc2cc(C(F)(F)F)ccc2F)cc1 [Compound 4]
Completion: 49

Prompt: Also check Nc1ncnc2c1ncn2-c1ccc(NC(=O)Nc2cc(C(F)(F)F)ccc2OC2CCNC2)cc1 (stereo not drawn) [Compound 1]
Completion: 34.3

Prompt: Follow-up item: Nc1ncnc2c1ncn2-c1ccc(NC(=O)Nc2ccc(OC3CCNC3)c(C(F)(F)F)c2)cc1 (stereo not drawn) [Compound 11]
Completion: 110

Prompt: Now give it for Nc1ncnc2c1ncn2-c1ccc(NC(=O)Nc2cc(C(F)(F)F)ccc2-n2cncn2)cc1 [Compound 9] too.
Completion: 12.5

Prompt: Try Nc1ncnc2c1ncn2-c1ccc(NC(=O)Nc2cccc(C(F)(F)F)c2)cc1 [Compound 2] next.
Completion: 14

====

compounds and their reported IC50
Target: VEGFR (KDR) (Homo sapiens)
Construct: cloning the cytoplasmic domain of the KDR kinase as an in frame fusion at the carboxyl terminus of the GST gene
Experiment: VEGF receptor kinase assay (pEY substrate, 33P incorporation)
Conditions: kinase inhibition
Could you give me the number in nM? Just the number is fine.

Nc1ncnc2c1ncn2-c1ccc(NC(=O)Nc2ccc(OC3CCNC3)c(C(F)(F)F)c2)cc1 (stereo not shown) :: 4.4
Nc1ncnc2c1ncn2-c1ccc(NC(=O)Nc2cccc(C(F)(F)F)c2)cc1 :: 3.6
Nc1ncnc2c1ncn2-c1ccc(NC(=O)Nc2cc(C(F)(F)F)ccc2F)cc1 :: 5.7

Please examine the following record next.
Prompt: State the recorded IC50 for this entry: `CC(C)(C)c1cc(NC(=O)Nc2ccc(-n3cnc4c(N)ncnc43)cc2)no1`
Completion: 2
